Test Details: Assessment of solubility (McIlvaine buffers, 24 h shake, UPLC-UV)
Type: physicochemical
Experimental Conditions: pH 2.2, aqueous buffer, kinetic from dmso stock
Method: Solubility is measured by the following method. 100 uL, 10 mM DMSO stock solution of each compound is prepared in a 96 well plate format. The experiment is done in single determination at 3 pH values (2.2, 4.5 and 6.8). For each pH and one reference, 40 uL of each compound is needed. McIlvaine pH 2.2: To 2.076 g citric acid monohydrate and 0.043 g Na2HPO4×2H2O add 100 ml deionized water […] The samples are measured with UPLC-UV using the chromatographic method described below. […]
Quick rule: solubility at 24 h of at least 100 µg/mL means label 1, below that means label 0.

These solved cases illustrate the format of a correct answer.
# Smiles Representation, Class Label
rows = [
    ("Cc1cccc(-c2cccc(-n3ncc(C(=O)O)c3OC(C)C)n2)c1OCc1ccc2c(c1C)CCN(C(C)C)C2", "label 0"),
    ("COc1c(C(=O)O)cnn1-c1cccc(-c2cccc(C(F)(F)F)c2OCc2ccc3c(c2C)CCN(C2CCOCC2)C3)n1", "label 1"),
    ("COc1c(C(=O)O)cnn1-c1cccc(-c2cccc(C)c2OCc2ccc3c(c2C)CCN([C@@H]2CCOC2)C3)n1", "label 0"),
    ("CCOc1c(C(=O)O)cnn1-c1cccc(-c2cccc(C)c2OCc2ccc3c(c2C)CCN([C@@H]2CCOC2)C3)n1", "label 0"),
    ("COc1c(C(=O)O)cnn1-c1cccc(-c2cccc(C)c2OCc2ccc3c(c2)CCN(CC2CC2)C3)n1", "label 0"),
]

Next up:
Query :: Evaluate Cc1cc(COc2c(C)cccc2-c2cccc(-n3ncc(C(=O)O)c3OC(C)C)n2)cc2c1CN(C1CCOCC1)CC2 : solubility at 24 h at minimum 100 µg/mL?
Result :: label 1
